Recorded IC50 by entry
Tested on: T47D (PI3Kα-H1047R) cell line
experiment-description: HTRF phospho-AKT(S473) cell assay in T47D cells
Type: cell-based, human
experimental-setup: Homo sapiens; HTRF phospho-AKT(S473), T47D (PI3Kα-H1047R) cells, 2 hours compound incubation
readout-label: IC50

smiles-representation | readout-value
COc1nc(C)cc(N2CCN(c3nc4c([C@@H](C)Nc5ccc(Cl)nc5C(=O)NS(C)(=O)=O)cc(C)cc4c(=O)n3C)CC2)n1 | 250 to 500 nM
Cc1cc([C@@H](C)Nc2ccc(Cl)nc2C(=O)NS(C)(=O)=O)c2nc([C@H]3[C@@H]4CN(c5ccc(C)nc5)C[C@@H]43)n(C)c(=O)c2c1 | 250 to 500 nM
COc1nc(C2CCN(c3nc4c([C@@H](C)Nc5ccc(Cl)nc5C(=O)NS(C)(=O)=O)cc(C)cc4c(=O)n3C)CC2)ncc1C | 250 to 500 nM
Cc1cc([C@@H](C)Nc2ccc(Cl)nc2C(=O)NS(C)(=O)=O)c2nc(-c3ccc(-c4cn(C)cn4)cc3)n(C)c(=O)c2c1 | < 250 nM
Cc1cc([C@@H](C)Nc2ccc(Cl)nc2C(=O)NS(C)(=O)=O)c2nc(N3C[C@@H]4[C@H](C3)[C@H]4c3coc(C)n3)n(C)c(=O)c2c1 | < 250 nM
Cc1cc([C@@H](C)Nc2ccc(Cl)nc2C(=O)NS(C)(=O)=O)c2nc(-c3ccc4nn(C)cc4c3)n(C)c(=O)c2c1 | < 250 nM
Cc1cc([C@@H](C)Nc2ccc(Cl)nc2C(=O)NS(C)(=O)=O)c2nc(N3CCC(n4cc(F)c(C)n4)CC3)n(C)c(=O)c2c1 | 250 to 500 nM
Cc1cc([C@@H](C)Nc2ccc(Cl)nc2C(=O)NS(C)(=O)=O)c2nc(N3CCn4ncc(F)c4C3)n(C)c(=O)c2c1 | 250 to 500 nM
Cc1cc([C@@H](C)Nc2ccc(Cl)nc2C(=O)NS(C)(=O)=O)c2nc(N3C[C@@H]4[C@H](C3)[C@H]4c3cc4n(n3)CCC4)n(C)c(=O)c2c1 | < 250 nM

* * *

Tested on: T47D (PI3Kα-H1047R) cell line
experiment-description: HTRF phospho-AKT(S473) cell assay in T47D cells
Format: cell-based, human
experimental-setup: Homo sapiens; HTRF phospho-AKT(S473), T47D (PI3Kα-H1047R) cells, 2 hours compound incubation
readout-label: IC50

molecule | readout-label | readout-value
Cc1cnc(N2CCN(c3nc4c([C@@H](C)Nc5ccc(Cl)nc5C(=O)NS(C)(=O)=O)cc(C)cc4c(=O)n3C)CC2)nc1 [Compound 532] | IC50 | 250 to 500 nM
Cc1cc([C@@H](C)Nc2ccc(Cl)nc2C(=O)NS(C)(=O)=O)c2nc([C@H]3[C@@H]4CN(c5ncc(Cl)cn5)C[C@@H]43)n(C)c(=O)c2c1 [Compound 825] | IC50 | 1000 to 5000 nM
Cc1cc([C@@H](C)Nc2ccc(Cl)nc2C(=O)NS(C)(=O)=O)c2nc(N3CCC(c4nn(C)cc4Cl)CC3)n(C)c(=O)c2c1 [Compound 702] | IC50 | 250 to 500 nM
COc1cc([C@H]2[C@@H]3CN(c4nc5c([C@@H](C)Nc6ccc(Cl)nc6C(=O)NS(C)(=O)=O)cc(C)cc5c(=O)n4C)C[C@@H]32)nn1C [Compound 542] | IC50 | 250 to 500 nM
Cc1cc([C@@H](C)Nc2ccc(Cl)nc2C(=O)NS(C)(=O)=O)c2nc(N3CCC(Oc4ccccn4)CC3)n(C)c(=O)c2c1 [Compound 694] | IC50 | 250 to 500 nM
